Measured pEC50 by item
System: C3H10T1/2 embryonic fibroblast cells
Format: cell-based, mouse
ASSAY CONDITIONS: C3H cells, 4 days, whole cell extracts; read-out: EC50 for inducing ALP activity
Protocol: For direct comparison to Oxy133, C3H cells were also treated with Oxy34 and Oxy49 (FIG. 2A). After 4 days, alkaline phosphatase (ALP) activity was measured in whole cell extracts. Cells at confluence were treated with vehicle, Oxy133 or Oxy149. After 4 days, alkaline phosphatase (ALP) activity was measured in whole cell extracts. […]
pEC50: −log10 of the molar value.
OUTCOME MEASURE: pEC50

| COMPOUND | OUTCOME MEASURE | REPORTED VALUE |
| --- | --- | --- |
| CC(C)CCCC(C)(O)C1CCC2C3CC(O)C4CC(O)CCC4(C)C3CCC21C (centres unmarked) | pEC50 | 6.10 |
| C=C(C)CCC[C@](C)(O)[C@H]1CC[C@H]2[C@@H]3C[C@H](O)[C@H]4C[C@@H](O)CC[C@]4(C)[C@H]3CC[C@@]21C | pEC50 | 6.05 |
